Origin of measurements: patent US11566007B2

- Measurement Target: KRAS G12S (Homo sapiens (Human), UniProt P01116+P62937, G12S)
- Sequence (P01116-2 other isoform, or with tags, fused parts or gaps G12S): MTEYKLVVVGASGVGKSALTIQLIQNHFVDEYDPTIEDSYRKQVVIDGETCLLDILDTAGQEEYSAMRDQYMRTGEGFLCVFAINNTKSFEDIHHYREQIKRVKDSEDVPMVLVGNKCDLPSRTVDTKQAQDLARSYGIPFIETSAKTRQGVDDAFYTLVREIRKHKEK
- Sequence (P62937 whole entry): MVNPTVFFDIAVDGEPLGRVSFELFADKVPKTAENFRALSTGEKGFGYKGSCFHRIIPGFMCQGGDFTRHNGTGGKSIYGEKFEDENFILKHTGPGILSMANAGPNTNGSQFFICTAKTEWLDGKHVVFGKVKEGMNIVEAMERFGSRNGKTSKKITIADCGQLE
- Assay Details: Ras-Raf (BRAF RBD) disruption / FRET / MOA assay, KRAS G12S
- Assay type: biochemical
- Run Parameters: Ras-Raf disruption/FRET/MOA assay; class symbols; read-out: KRAS G12S FRET data IC50
pIC50: −log10 of the molar value.
Quantity: pIC50

Example entries and their recorded answers appear below.
Compound	Readout Value
C=CS(=O)(=O)N1CCC2(CCN([C@H](C(=O)N[C@H]3Cc4cc(O)cc(c4)-c4ccc5c(c4)c(c(-c4cccnc4[C@H](C)OC)n5CC)CC(C)(C)COC(=O)[C@@H]4CCCN(N4)C3=O)C(C)C)C2=O)CC1 (atropisomer, axis not shown)	7.00 to 8.00
C=CC(=O)N1CC[C@H](C(=O)N(C)[C@H](C(=O)N[C@H]2Cc3cc(O)cc(c3)-c3ccc4c(c3)c(c(-c3cncc(COC)c3)n4CC)CC(C)(C)COC(=O)[C@@H]3CCCN(N3)C2=O)C(C)C)C1	6.00 to 7.00
C=CC(=O)N1CC[C@H](C(=O)N(C)[C@H](C(=O)N[C@H]2Cc3cc(O)cc(c3)-c3ccc4c(c3)c(c(-c3cc(C#N)cnc3COC)n4CC)CC(C)(C)COC(=O)[C@@H]3CCCN(N3)C2=O)C(C)C)C1	6.00 to 7.00

## Task Need pIC50, item `CCn1c(-c2cnccc2[C@H](C)OC)c2c3cc(ccc31)-c1cccc(c1)C[C@H](NC(=O)[C@H](C(C)C)N(C)C(=O)[C@H]1CCN(C(=O)C#CCN(C)C)C1)C(=O)N1CCC[C@H](N1)C(=O)OCC(C)(C)C2`
## Result 5.00 to 6.00
